Consider the following IC50 data for UniProt P14902, collected from several reports.

Recorded IC50, per entry:
> print(dat)
                                   compound     test.system  readout  meas.value
1  Nc1oc2c(-c3ccnc(C(=O)NCCN4CCOCC4)c3)nccc2c1Nc1ccc(F)c(Cl)c1  UniProt P14902     IC50    < 200 nM
2      COc1cc2c(Nc3ccc(F)c(Cl)c3)c(N)oc2cn1  UniProt P14902     IC50    < 200 nM
3  NS(=O)(=O)NCCONc1nonc1/C(=N/O)NCc1ccccc1  UniProt P14902     IC50       68 nM
4   Cc1ncc(CN(C(=O)Nc2ccc(Cl)cc2)C2CCCC2)o1  UniProt P14902     IC50  > 30000 nM
5  Nc1oc2c(-c3ccncc3)nccc2c1Nc1ccc(F)c(F)c1  UniProt P14902     IC50    < 200 nM

Would you mind listing IC50 for each of the following compounds?
1. N#Cc1ccc(NC(=O)N(Cc2cn3ccsc3n2)C2CCC2)cc1
2. Cc1ccc(CN(C(=O)Nc2ccc(Cl)cc2)C2CCC2)o1
3. CC1=C(c2ccccc2)C(CC(=O)c2ccc(C(=O)Nc3cccnc3)cc2)n2cncc21 (stereo not drawn)
4. CC1=C(c2ccccc2)C(CC(=O)c2ccc(NC(=O)Cc3ccccc3F)cc2)n2cncc21 (stereo not drawn)

> 30000 nM
> 30000 nM
> 500 nM
< 500 nM

---

The compounds below each have a reported IC50 tested on Indoleamine 2,3-dioxygenase 1 (Homo sapiens, UniProt P14902); the values come from various publications.

> print(dat)
                                   compound                               test.system  meas.value
1  CCCCC(O)CC1C(c2ccccc2)=C(C)c2cncn21 (stereo not drawn)  Indoleamine 2,3-dioxygenase 1 (Homo sapiens, UniProt P14902)    > 0.5 µM
2  Nc1oc2c(-c3ccc(F)c(F)c3F)nccc2c1Nc1ccc(F)c(Cl)c1  Indoleamine 2,3-dioxygenase 1 (Homo sapiens, UniProt P14902)    < 0.2 µM
3      CCc1ccc(NC(=O)N(Cc2cccs2)C2CCCC2)cc1  Indoleamine 2,3-dioxygenase 1 (Homo sapiens, UniProt P14902)     > 30 µM
4  COCC#Cc1ccc(NC(=O)N(Cc2ccc(C)o2)C2CCCC2)cc1  Indoleamine 2,3-dioxygenase 1 (Homo sapiens, UniProt P14902)     > 30 µM

Please state, for each entry, its recorded IC50.
1. Cc1ccc(CN(C(=O)Nc2ccc(C3=CCN(C(=O)OC(C)(C)C)C3)cc2)C2CCCC2)o1
2. NS(=O)(=O)NC(CO)CONc1nonc1/C(=N/O)Nc1ccc(F)cc1 (stereo not drawn)
3. CC1=C(c2ccccc2)C(CC(O)C2CCN(C(=O)C(C)C)CC2)n2cncc21 (stereo not drawn)
4. N#Cc1nccc2c(Nc3ccccc3Cl)c(N)oc12

1. > 30 µM
2. 0.036 µM
3. > 0.5 µM
4. < 0.2 µM

Form: Entry = CC1=C(c2ccccc2)C(CC(O)C2CCN(C(=O)Nc3ccc(F)c(Cl)c3)CC2)n2cncc21 (stereo not drawn) | System = Indoleamine 2,3-dioxygenase 1 (Homo sapiens, UniProt P14902) | IC50 = ____
< 0.5 µM

---

pIC50: −log10 of the molar value.
A compilation of published pIC50 results with Indoleamine 2,3-dioxygenase 1 (Homo sapiens, UniProt P14902).

Solved cases (3 shown):
> print(dat)
                                   compound  readout  meas.value
1   Cc1ccc(CN(C(=O)Nc2ccc(Cl)cc2)C2CCCC2)o1    pIC50      < 4.52
2  COc1cccc(-c2nccc3c(Nc4ccc(F)c(Cl)c4)c(N)oc23)c1    pIC50      > 6.70
3  COc1cc(-c2nccc3c(Nc4ccc(F)c(Cl)c4)c(N)oc23)ccn1    pIC50      > 6.70

Fill in pIC50 for each of the 6 compounds listed.
1. CNC(=O)c1cc(-c2nccc3c(Nc4ccc(F)cc4)c(N)oc23)ccn1
2. Nc1oc2c(-c3ccncc3)nccc2c1Nc1ccc(F)c(Cl)c1
3. CC1=C(c2ccccc2)C(CC(O)C2CCC(F)(F)CC2)n2cncc21 (stereo not shown)
4. CS(=O)(=O)N1CC2(CC(Nc3nonc3C(=NO)Nc3ccc(F)c(Br)c3)C2)C1
5. CC1=C(c2ccccc2)C(CC(O)C2CCN(C(=O)c3ccccc3)CC2)n2cncc21 (stereo not shown)
6. O/N=C(\Nc1ccc(F)c(F)c1)c1nonc1NOC1CCC(O)CC1 (stereo not shown)

["> 6.70", "> 6.70", "> 6.30", 6.77, "> 6.30", 7.03]

---

Reported IC50 on UniProt:P14902 for assorted molecules, compiled from publications.

> print(dat)
                                   molecule     test.system  meas.value
1  NS(=O)(=O)NC1CCC(ONc2nonc2/C(=N/O)Nc2ccc(F)c(F)c2)CC1 (stereo not drawn)  UniProt:P14902       42 nM

Items follow; give IC50 for each.
1. N#Cc1nccc2c(Nc3ccc(F)c(Cl)c3)c(N)oc12
2. Cc1ccc(CN(C(=O)Nc2ccc(Cl)cc2)c2ccnn2C)o1
3. Nc1sc2ccccc2c1Nc1cccc(F)c1
4. COc1cc2c(Nc3ccc(F)c(Cl)c3)c(N)oc2c(-c2ccc(C#N)cc2)n1
5. Cc1cccc(Nc2c(N)oc3cnccc23)c1
6. Cc1cc(-c2cccc3c(Nc4ccc(F)cc4)c(N)sc23)ccn1
7. CC1=C(c2ccccc2)C(CC(=O)c2ccc(-c3ccsc3)cc2)n2cncc21 (stereo not drawn)

1: < 200 nM; 2: > 30000 nM; 3: < 200 nM; 4: < 200 nM; 5: < 200 nM; 6: < 200 nM; 7: < 500 nM

Answer for every listed entry: what is its IC50? The entries follow.
1. COc1ccc(-c2nccc3c(Nc4ccc(F)c(Cl)c4)c(N)oc23)cc1
2. Nc1oc2c(-c3ccnc(C(=O)NC4CCCCC4)c3)nccc2c1Nc1ccc(F)c(Cl)c1
3. O/N=C(\Nc1ccc(F)c(C(F)(F)F)c1)c1nonc1NOCCc1cccs1
4. Nc1oc2c(-c3ccncc3)nccc2c1Nc1ccc(F)cc1

["< 200 nM", "< 200 nM", "113 nM", "< 200 nM"]

---

Values of IC50 for Indoleamine 2,3-dioxygenase 1 (Homo sapiens, UniProt P14902), collected from a number of published sources:

> print(dat)
                                   molecule                               test.system  readout  meas.value
1  CC1=C(c2ccccc2)C(CC(=O)C2CCC(C(=O)Nc3ccncc3)CC2)n2cncc21 (stereo not shown)  Indoleamine 2,3-dioxygenase 1 (Homo sapiens, UniProt P14902)     IC50    > 500 nM
2  CC1=C(c2ccccc2)C(CC(=O)c2ccc(-c3ccccc3)cc2)n2cncc21 (single isomer, unassigned; isomer-i)  Indoleamine 2,3-dioxygenase 1 (Homo sapiens, UniProt P14902)     IC50    < 500 nM

Hi there! I need IC50 for each item below, if you can.
1. Cc1nccc2c(Nc3cccc(C(F)(F)F)c3)c(N)oc12
2. CC1=C(c2ccccc2)C(CC(O)[C@H]2CC[C@H](C(=O)N[C@H]3CC[C@H](O)CC3)CC2)n2cncc21 (stereo partly shown)
3. NS(=O)(=O)NCCONc1nonc1/C(=N/O)Nc1ccc(F)c(Br)c1
4. Cc1cc(-c2nc(F)cc3c(Nc4ccc(F)c(F)c4)c(N)oc23)ccn1
5. Nc1oc2c(-c3cc(Cl)cc(Cl)c3)nccc2c1Nc1ccc(F)c(Cl)c1

1: < 200 nM; 2: > 500 nM; 3: 8 nM; 4: < 200 nM; 5: < 200 nM

For every item below, please supply its IC50.
1. CC1=C(c2ccccc2)C(CC(=O)c2cccc(C(F)(F)F)c2)n2cncc21 (stereo not shown)
2. CC(C)(C)NC(=O)c1cc(-c2nccc3c(Nc4ccc(F)c(Cl)c4)c(N)oc23)ccn1
3. Nc1oc2c(-c3ccccc3)nccc2c1Nc1ccc(F)c(Cl)c1
4. Nc1oc2c(-c3cccnc3)nccc2c1Nc1ccc(F)c(Cl)c1
5. Nc1oc2c(-c3ccnc(C(=O)Nc4ccccc4)c3)nccc2c1Nc1ccc(F)c(Cl)c1
6. Nc1oc2c(-c3ccc(F)cc3)nccc2c1Nc1ccc(F)c(Cl)c1
7. Nc1oc2c(Cl)nccc2c1Nc1ccc(F)c(Cl)c1
8. Nc1oc2c(-c3ccncc3)nccc2c1Nc1cccc(Cl)c1

["< 500 nM", "< 200 nM", "< 200 nM", "< 200 nM", "< 200 nM", "< 200 nM", "< 200 nM", "< 200 nM"]

List IC50 for every entry below, keeping the order given.
1. Nc1oc2c(-c3ccc4c(c3)OCO4)nccc2c1Nc1ccc(F)c(Cl)c1
2. Nc1oc2cnccc2c1Nc1cccc(C(F)(F)F)c1
3. CCCCCNC(=O)c1cc(-c2nccc3c(Nc4ccc(F)c(Cl)c4)c(N)oc23)ccn1

< 200 nM
< 200 nM
< 200 nM
